All values here come from patent US9957274B2.

- test_system: EED (Homo sapiens, UniProt O75530)
- Sequence (O75530 whole entry): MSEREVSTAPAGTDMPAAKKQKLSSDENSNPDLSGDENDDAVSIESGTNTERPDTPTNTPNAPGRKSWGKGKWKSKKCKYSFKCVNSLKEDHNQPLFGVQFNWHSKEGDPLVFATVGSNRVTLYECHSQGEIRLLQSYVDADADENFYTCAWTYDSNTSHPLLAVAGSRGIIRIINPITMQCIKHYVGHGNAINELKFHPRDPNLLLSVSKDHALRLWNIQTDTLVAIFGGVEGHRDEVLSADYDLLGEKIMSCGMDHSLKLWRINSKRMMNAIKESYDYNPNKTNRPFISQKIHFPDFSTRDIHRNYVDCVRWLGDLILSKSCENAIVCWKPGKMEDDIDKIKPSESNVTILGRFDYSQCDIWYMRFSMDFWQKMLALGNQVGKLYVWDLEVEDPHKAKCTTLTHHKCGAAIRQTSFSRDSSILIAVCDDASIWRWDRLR
- assay_text: EED TR-FRET Binding Assay (modified LanthaScreen competition assay)
reported_endpoint: IC50 (nM)

Example cases with answers are listed next.
molecule="CN(C)C(=O)c1ccc2c([C@H]3CN(C4CCc5cccc(F)c54)C[C@@H]3N(C)C)cn(C)c2c1 (mixture of isomers) [Example 87]" reported_endpoint=IC50 units_text=nM test_result=0.481
molecule="CN(C)[C@@H]1CN(C2CCc3cccc(F)c32)C[C@H]1c1ccc(N2CCN(C(=O)C3COC3)CC2)nc1 (mixture of isomers) [Example 151]" reported_endpoint=IC50 units_text=nM test_result=2.24
molecule="CN(C)[C@H]1CN([C@H]2C[C@H](F)c3cccc(F)c32)C[C@@H]1c1ccc(S(C)(=O)=O)cc1 (mixture of isomers) [Example 32]" reported_endpoint=IC50 units_text=nM test_result=4.54
molecule="CN(C)[C@@H]1CN([C@@H]2CCc3cccc(F)c32)C[C@H]1c1ccc(C#N)cc1 (racemic) [Example 19]" reported_endpoint=IC50 units_text=nM test_result=12.5
molecule="CN(C)[C@@H]1CN(C2CCc3cccc(F)c32)C[C@H]1c1ccc(-c2cnn(CC(N)=O)c2)nc1 (mixture of isomers) [Example 158]" reported_endpoint=IC50 units_text=nM test_result=1.37
molecule="CN(C)[C@H]1CN(C2CCc3cccc(F)c32)C[C@@H]1c1cn(C)c2c(C(=O)N3CCN(S(=O)(=O)N4CCC4)CC3)cccc12 (some centres unmarked) [Example 132]" reported_endpoint=IC50 units_text=nM test_result=1.44
molecule="CCS(=O)(=O)N1CCN(c2ccc([C@H]3CN(C4CCc5cccc(F)c54)C[C@@H]3N(C)C)cc2C)CC1 (mixture of isomers) [Example 62]" reported_endpoint=IC50 units_text=nM test_result=1.35
molecule="CN(C)[C@H]1CN(C2CCc3cccc(F)c32)C[C@@H]1c1cn(C)c2cc(N3CCN(S(C)(=O)=O)CC3)ccc12 (mixture of isomers) [Example 120]" reported_endpoint=IC50 units_text=nM test_result=3.46
molecule="CNC(=O)c1cccc2c([C@H]3CN(C4CCc5cccc(F)c54)C[C@@H]3N(C)C)cn(C)c12 (mixture of isomers) [Example 99]" reported_endpoint=IC50 units_text=nM test_result=1.91
molecule="CN(C)[C@@H]1CN(C2CCc3cccc(F)c32)C[C@H]1c1ccc2c(c1)OCO2 (mixture of isomers) [Example 65]" reported_endpoint=IC50 units_text=nM test_result=1.75

[P] CN(C)[C@@H]1CN(C2CCc3cccc(F)c32)C[C@H]1c1ccc(N2CCNCC2)cc1 (mixture of isomers) [Example 41]
[Q] CC(=O)N1CCN(C(=O)c2ccc([C@H]3CN(C4CCc5cccc(F)c54)C[C@@H]3N(C)C)cc2)CC1 (mixture of isomers) [Example 55]
// compare measured IC50 between P and Q ; output the lower one Respond using the label that marks the chosen record.
P
(P: 1.99 nM, Q: 13.2 nM)
